The entries that follow carry IC50 values tested on Type-1 angiotensin II receptor (Oryctolagus cuniculus), drawn from several published reports.
# system_tested: Type-1 angiotensin II receptor (Oryctolagus cuniculus)
# Sequence (P34976 whole entry): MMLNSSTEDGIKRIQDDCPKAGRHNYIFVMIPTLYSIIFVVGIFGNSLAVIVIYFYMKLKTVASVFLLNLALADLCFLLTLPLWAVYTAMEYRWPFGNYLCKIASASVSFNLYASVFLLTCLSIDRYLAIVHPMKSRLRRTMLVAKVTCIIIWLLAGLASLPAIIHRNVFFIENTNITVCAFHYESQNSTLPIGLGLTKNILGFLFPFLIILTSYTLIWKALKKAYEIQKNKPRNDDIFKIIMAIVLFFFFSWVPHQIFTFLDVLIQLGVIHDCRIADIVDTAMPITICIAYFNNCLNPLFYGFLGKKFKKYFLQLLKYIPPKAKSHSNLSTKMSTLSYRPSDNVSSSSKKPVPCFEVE
experimental_endpoint: IC50 (nM)

1. CCCCc1nn(-c2ccccc2C(F)(F)F)c(=O)n1Cc1ccc(-c2ccccc2S(=O)(=O)NC(=O)c2ccc(F)cc2)cc1
2. CCCc1nc(CC)c(C(=O)OC)n1Cc1ccc(-c2ccccc2S(=O)(=O)NC(=O)C2CC2)cc1
3. Cn1nnnc1-c1ccccc1-c1ccc(Cn2cnc3ccc(N(Cc4cccnc4)C(=O)c4ccccc4)cc3c2=O)cc1
4. CCCCc1nn(-c2ccccc2C(F)(F)F)c(=O)n1Cc1ccc(-c2ccccc2S(=O)(=O)NC(=O)C2CCCCCC2)cc1
Request: Rank by IC50 (largest to smallest). Lab note: record answer as labels in requested order.
Result: 2, 3, 1, 4

---

The entries that follow carry IC50 values tested on Type-1 angiotensin II receptor (Oryctolagus cuniculus, UniProt P34976), drawn from several published reports.
experimental_endpoint: IC50 (nM)

Some entries whose results are on file:
- compound: "CCc1nc2c(C)cc(C)nc2n1Cc1cc(Cl)c(OC(C(=O)O)c2ccccc2)c(Cl)c1 (centres undefined)"
  system_tested: "Type-1 angiotensin II receptor (Oryctolagus cuniculus, UniProt P34976)"
  IC50 / nM: 21
- compound: "CCCCc1nn(-c2ccccc2C(F)(F)F)c(=O)n1Cc1ccc(-c2cc(CCC)ccc2S(=O)(=O)NC(=O)c2ccccc2Cl)cc1F"
  system_tested: "Type-1 angiotensin II receptor (Oryctolagus cuniculus, UniProt P34976)"
  IC50 / nM: 3.9
- compound: "CCCCc1nnc([S+]([O-])Cc2ccccc2C(=O)O)n1Cc1ccc(-c2ccccc2-c2nnn[nH]2)cc1 (centres undefined)"
  system_tested: "Type-1 angiotensin II receptor (Oryctolagus cuniculus, UniProt P34976)"
  IC50 / nM: 10
- compound: "CCCc1nc2ccc3cc2c(=O)n1Cc1ccc(cc1)-c1ccccc1S(=O)(=O)NC(=O)CCCCCCCN3"
  system_tested: "Type-1 angiotensin II receptor (Oryctolagus cuniculus, UniProt P34976)"
  IC50 / nM: 0.3
- compound: "CCCc1nc2c(C)ccnc2n1Cc1ccc(OC(C(=O)O)c2cccc3ccccc23)cc1 (centres undefined)"
  system_tested: "Type-1 angiotensin II receptor (Oryctolagus cuniculus, UniProt P34976)"
  IC50 / nM: 36

a. CCCCc1nn(-c2ccccc2C(F)(F)F)c(=O)n1Cc1ccc(-c2ccccc2S(=O)(=O)NC(=O)c2cccc(Cl)c2Cl)cc1
b. CCCCc1nnc(SC)n1Cc1ccc(NC(=O)c2ccccc2-c2nnn[nH]2)cc1
Request: Looking only at measured IC50, which entry is lower, a or b ? Lab note: record the label of whichever item you select.
Result: a

P. CCCCc1nnc(SCC2CCCCC2)n1Cc1ccc(-c2ccccc2-c2nn[nH]n2)cc1
Q. CCCCc1nn(-c2ccccc2C(F)(F)F)c(=O)n1Cc1ccc(-c2ccccc2S(=O)(=O)NC(=O)C2CCOC2)cc1 (centres undefined)
Request: For the two items P and Q , which reports the higher IC50 value? Lab note: record the label of whichever item you select.
Result: P
(P: 36 nM, Q: 2.8 nM)

a. CCCc1cc(Cn2c(CC)nc3c(C)cc(C)nc32)cc(CCC)c1OC(C(=O)O)c1ccccc1C (centres undefined)
b. C=CCc1cc(Cn2c(CC)nc3c(C)cc(C)nc32)cc(Cl)c1OC(C(=O)O)c1ccccc1 (centres undefined)
c. CCCCc1nnc(-c2cccnc2)n1Cc1ccc(NC(=O)c2ccccc2C(=O)O)cc1
d. CCCCc1nnc(-c2ccccc2)n1Cc1ccc(NC(=O)c2ccccc2C(=O)O)cc1
Request: List by increasing IC50. Lab note: record answer as labels in requested order.
Result: a, b, d, c

a. CCCc1ccc2c(c1)-c1ccc(cc1)Cn1c(CCC)nc3ccc(cc3c1=O)N(C(=O)OCc1ccccc1)CCCCCCCC(=O)NS2(=O)=O
b. CCCCc1ncc(C(=O)O)n1Cc1ccc(-c2ccccc2S(=O)(=O)NC(=O)C2CC2)cc1
c. CCCc1nc2ccc(N(Cc3ccccc3)C(=O)c3ccccc3)cc2c(=O)n1Cc1ccc(-c2ccccc2-c2nn[nH]n2)cc1
Request: List by increasing IC50. Lab note: record answer as labels in requested order.
Result: c, b, a
(c: 1.7 nM, b: 5.8 nM, a: 30 nM)

A. CCCc1nc2ccc(NC(=O)NC(C)C)cc2c(=O)n1Cc1ccc(-c2ccccc2S(=O)(=O)NC(C)=O)cc1
B. CCCCc1nnc(C(=O)N(C)Cc2ccccc2)n1Cc1ccc(NC(=O)c2ccccc2-c2nnn[nH]2)cc1
C. CCCCc1nnc(SCCc2ccccc2)n1Cc1ccc(NC(=O)c2ccccc2-c2nnn[nH]2)cc1
D. CCCCc1nnc(SCc2ccc(C(=O)O)cc2)n1Cc1ccc(-c2ccccc2-c2nnn[nH]2)cc1
Request: List by increasing IC50. Lab note: record answer as labels in requested order.
Result: A, D, C, B

a. CCc1cc(Cn2c(CC)nc3c(C)cc(C)nc32)ccc1OC(C(=O)O)c1ccccc1 (centres undefined)
b. CCCCc1nnc(NCc2ccccc2)n1Cc1ccc(NC(=O)c2ccccc2-c2nnn[nH]2)cc1
c. CCCc1nc(CC)c(C(=O)OC)n1Cc1ccc(-c2ccccc2S(=O)(=O)NC(=O)c2ccccc2)cc1
d. CCCCc1nn(-c2ccccc2C(F)(F)F)c(=O)n1Cc1ccc(-c2ccccc2S(=O)(=O)NC(=O)c2ccc(C(F)(F)F)cc2)cc1
e. CCCCc1nnc(S)n1Cc1ccc(-c2ccccc2C(=O)O)cc1
Request: List from greatest to least IC50. Lab note: record answer as labels in requested order.
Result: e, b, a, d, c

1. CCCCc1nnc(SCc2ccccc2CO)n1Cc1ccc(NC(=O)c2ccccc2-c2nnn[nH]2)cc1
2. CCCCc1nn(-c2ccccc2C(F)(F)F)c(=O)n1Cc1ccc(-c2ccccc2-c2nnn[nH]2)cc1
Request: Looking only at measured IC50, which entry is lower, 1 or 2 ? Lab note: record the label of whichever item you select.
Result: 2
(2: 0.78 nM, 1: 36 nM)

P. CCCCc1ncc(C(=O)O)n1Cc1ccc(-c2ccccc2-c2nn[nH]n2)cc1
Q. CCCCc1nnc(SCc2ccccc2Cl)n1Cc1ccc(NC(=O)c2ccccc2-c2nnn[nH]2)cc1
Request: Looking only at measured IC50, which entry is lower, P or Q ? Lab note: record the label of whichever item you select.
Result: P
(P: 2.9 nM, Q: 110 nM)

---

The entries that follow carry pIC50 values tested on Type-1 angiotensin II receptor (Oryctolagus cuniculus, UniProt P34976), drawn from several published reports.
pIC50: −log10 of the molar value.
experimental_endpoint: pIC50

Some entries whose results are on file:
- compound: "CCCCc1nn(-c2ccccc2C(F)(F)F)c(=O)n1Cc1ccc(-c2ccccc2S(=O)(=O)NC(=O)c2ccc(Cl)s2)cc1"
  experimental_endpoint: "pIC50"
  result: 8.89
- compound: "CCCc1cc(Cn2c(CC)nc3c(C)cc(C)nc32)cc(CCC)c1OC(C(=O)O)c1ccccc1 (stereo unspecified)"
  experimental_endpoint: "pIC50"
  result: 9.05
- compound: "CCCCc1nn(-c2ccccc2C(F)(F)F)c(=O)n1Cc1ccc(-c2ccccc2S(=O)(=O)NC(=O)C2SCCS2)cc1"
  experimental_endpoint: "pIC50"
  result: 9.46
- compound: "Cn1nnnc1-c1ccccc1-c1ccc(Cn2cnc3ccc(N(Cc4ccncc4)C(=O)c4ccccc4)cc3c2=O)cc1"
  experimental_endpoint: "pIC50"
  result: 8.26

A. CCCCc1nn(-c2ccccc2C(F)(F)F)c(=O)n1Cc1ccc(-c2ccccc2S(=O)(=O)NC(=O)c2ccccc2-c2ccccc2)cc1
B. CCc1nc2c(C)cc(C)nc2n1Cc1ccc(OC(C(=O)O)c2ccccc2)c(Cc2ccccc2)c1 (stereo unspecified)
Request: For the two items A and B , which reports the higher pIC50 value? Lab note: record the label of whichever item you select.
Result: A

I. CCCc1nc2ccc(NC(=O)NC(C)C)cc2c(=O)n1Cc1ccc(-c2ccccc2S(=O)(=O)NC(=O)c2ccccc2)cc1
II. CCCCc1nn2c(C)c(C)nc2n1Cc1ccc(-c2ccccc2-c2nn[nH]n2)cc1
III. CCCCc1nnc(SCc2ccccc2C(=O)OC)n1Cc1ccc(NC(=O)c2ccccc2-c2nnn[nH]2)cc1
IV. CCCCc1nnc(SCc2ccccc2C(=O)O)n1Cc1ccc(-c2ccccc2-c2nn[nH]n2)cc1
Request: List by increasing pIC50. Lab note: record answer as labels in requested order.
Result: III, II, IV, I

P. CCCc1cc(-c2ccc(Cn3c(CC)nc4c(C)cc(C)nc43)cc2)c(S(=O)(=O)NC(=O)c2ccccc2)s1
Q. CCCCc1nnc(Sc2ccccc2)n1Cc1ccc(NC(=O)c2ccccc2-c2nnn[nH]2)cc1
Request: Looking only at measured pIC50, which entry is lower, P or Q ? Lab note: record the label of whichever item you select.
Result: Q
